Origin of values: PubChem BioAssay AID694

Below, each entry is listed with its recorded inhibition.
system: Estrogen receptor (Homo sapiens) (UniProt P03372)
Sequence (P03372 whole entry, looked up): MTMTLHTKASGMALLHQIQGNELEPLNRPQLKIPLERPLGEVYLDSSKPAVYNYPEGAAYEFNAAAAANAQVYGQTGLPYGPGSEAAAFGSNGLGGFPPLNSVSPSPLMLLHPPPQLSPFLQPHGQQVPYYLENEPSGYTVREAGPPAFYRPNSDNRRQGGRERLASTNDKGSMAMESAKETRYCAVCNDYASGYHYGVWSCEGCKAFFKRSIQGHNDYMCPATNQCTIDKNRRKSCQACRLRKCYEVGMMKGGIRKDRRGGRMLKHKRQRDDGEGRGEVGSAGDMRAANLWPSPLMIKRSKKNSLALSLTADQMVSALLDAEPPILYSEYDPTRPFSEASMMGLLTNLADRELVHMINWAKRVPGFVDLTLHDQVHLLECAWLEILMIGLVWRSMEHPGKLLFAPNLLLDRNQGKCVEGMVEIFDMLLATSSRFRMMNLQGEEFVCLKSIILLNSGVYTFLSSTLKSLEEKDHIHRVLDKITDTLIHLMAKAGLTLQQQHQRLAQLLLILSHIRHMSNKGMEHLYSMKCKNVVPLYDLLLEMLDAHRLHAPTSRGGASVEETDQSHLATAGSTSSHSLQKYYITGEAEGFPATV
test_method_notes: blockers of coactivator recruitment to ERα – biochemical, LOPAC library, TR-FRET, primary screen (AID 694);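 also: receptor was agonist-bound with estradiol present during the assay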
condition_summary: TR-FRET ERalpha-coactivator peptide binding, inhibition, at 15 µM, stronger effect = higher value
Hit rate of the full screen: of about 1,300 compounds, about 25 (2%) were called active. Shown is part of a subset that was picked to be rich in actives.
The figure you give is taken to be in %; do not add the unit.

Some molecules with recorded inhibition:
| smiles_record | system | recorded_value |
| --- | --- | --- |
| CC#C[C@]1(O)CC[C@H]2[C@@H]3CCC4=CC(=O)CCC4=C3[C@@H](c3ccc(N(C)C)cc3)C[C@@]21C | Estrogen receptor (Homo sapiens) (UniProt P03372) | 1.37 |
| C[n+]1cc2c3c(ccc2c2ccc4cc5c(cc4c21)OCO5)OCO3 | Estrogen receptor (Homo sapiens) (UniProt P03372) | 3.96 |

Now look at this one.
In: Consider the molecule `O=c1c2ccccc2nc2n1CCc1c-2[nH]c2ccccc12` and give its measured inhibition.
Out: 1.11

====

system: Estrogen receptor (Homo sapiens) (UniProt P03372)
test_method_notes: blockers of coactivator recruitment to ERα – biochemical, LOPAC library, TR-FRET, primary screen (AID 694);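 also: receptor was agonist-bound with estradiol present during the assay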
condition_summary: TR-FRET ERalpha-coactivator peptide binding, inhibition, at 15 µM, stronger effect = higher value
In all, about 1,300 compounds went through this assay and about 25 (2%) were called active. This is one part of a sample in which actives are shown more often than they occur.
reported_endpoint: inhibition (%)
The figure you give is taken to be in %; do not add the unit.

In: Consider the compound S=C(S)OC1CC2CC1C1CCCC21 (configuration not stated) and give its measured inhibition.
Out: 6.45

In: Consider the compound `COc1cc2c(cc1O)CC[C@@H]1[C@@H]2CC[C@]2(C)[C@@H](O)CC[C@@H]12` and give its measured inhibition.
Out: 3.36

In: Consider the compound `N#C/C(=C\c1ccc(O)c(O)c1)C(=O)NCCCNC(=O)/C(C#N)=C/c1ccc(O)c(O)c1` and give its measured inhibition.
Out: 37.2

In: Consider the compound `NC[C@@H]1O[C@H](C23CC4CC(CC(C4)C2)C3)Cc2c1ccc(O)c2O` and give its measured inhibition.
Out: -1.93

In: Consider the compound `CCCCCCCC/C=C\CCCCCCCC(=O)NCCO` and give its measured inhibition.
Out: 9.1

In: Consider the compound `CCCn1c(=O)c2[nH]c(-c3ccc(OCC(=O)Nc4ccc(C#N)cc4)cc3)nc2n(CCC)c1=O` and give its measured inhibition.
Out: 8.2

In: Consider the compound `CN(C)CCN(Cc1cccs1)c1ccccn1` and give its measured inhibition.
Out: 3.28

In: Consider the compound Nc1nc2c(nc(Br)n2C2OC3COP(=O)(O)O[C@@H]3C2O)c(=O)[nH]1 (some centres not stated) and give its measured inhibition.
Out: -2.06

In: Consider the compound `O=C(/C=C/c1ccc(O)cc1)c1ccc(O)cc1O` and give its measured inhibition.
Out: -3.98

In: Consider the compound N=c1ccn2c(n1)OC1[C@@H](O)[C@@H](CO)O[C@H]12 (some centres not stated) and give its measured inhibition.
Out: 1.25

In: Consider the compound `CC(=O)SCC[N+](C)(C)C` and give its measured inhibition.
Out: -4.29

In: Consider the compound `COc1ccccc1NC(=O)Nc1nc(-c2cccnc2)nc2ccccc12` and give its measured inhibition.
Out: 4.04

====

Below, each entry is listed with its recorded inhibition.
system: Estrogen receptor (Homo sapiens) (UniProt P03372)
test_method_notes: blockers of coactivator recruitment to ERα – biochemical, LOPAC library, TR-FRET, primary screen (AID 694);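 also: receptor was agonist-bound with estradiol present during the assay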
condition_summary: TR-FRET ERalpha-coactivator peptide binding, inhibition, at 15 µM, stronger effect = higher value
Out of some 1,300 compounds screened, about 25 (2%) were called active. This is one part of a sample in which actives are shown more often than they occur.
The figure you give is taken to be in %; do not add the unit.

Some compounds with recorded inhibition:
| compound | system | inhibition, % |
| --- | --- | --- |
| NCCNS(=O)(=O)c1cccc2cnccc12 | Estrogen receptor (Homo sapiens) (UniProt P03372) | -3.64 |
| CN(CCOc1ccc(C[C@H](Nc2ccccc2C(=O)c2ccccc2)C(=O)O)cc1)c1ccccn1 | Estrogen receptor (Homo sapiens) (UniProt P03372) | 2.17 |
| N#CC(Cc1ccc(O)c(O)c1)C(=O)N1CCc2ccccc21 (stereo not given) | Estrogen receptor (Homo sapiens) (UniProt P03372) | -5.26 |
| C=CCN1CCc2c(cc(O)c(O)c2Cl)C(c2ccccc2)C1 (stereo not given) | Estrogen receptor (Homo sapiens) (UniProt P03372) | -1.34 |
| CN[C@H]1CC[C@@H](c2ccc(Cl)c(Cl)c2)c2ccccc21 | Estrogen receptor (Homo sapiens) (UniProt P03372) | 4.91 |

In: Consider the compound `CCOC(=O)Nc1ccc(NCc2ccc(F)cc2)nc1N` and give its measured inhibition.
Out: -0.39

In: Consider the compound C/C=C1\C(=O)CC2C3CCC4=CC(=O)CC[C@]4(C)C3CC[C@]12C (stereo not given in full) and give its measured inhibition.
Out: -5.45

In: Consider the compound `COc1ccc(CCNC[C@@H](O)c2ccc(O)cc2)cc1OC` and give its measured inhibition.
Out: 1.3

In: Consider the compound `N.N.N.N.N.N.N.N.N.N.N.N.N.N.O.O.[Cl-].[Cl-].[Cl-].[Cl-].[Cl-].[Cl-].[Ru+4].[Ru+5].[Ru+5]` and give its measured inhibition.
Out: 99.8

In: Consider the compound `CN(C)CCOC(c1ccccc1)c1ccccc1` and give its measured inhibition.
Out: 1.48

In: Consider the compound Oc1cc2c(c(Cl)c1O)CCNCC2c1ccccc1 (stereo not given) and give its measured inhibition.
Out: 4.73

In: Consider the compound `CCCc1c(OCCCOc2ccc(OCC(=O)O)cc2)ccc(C(C)=O)c1O` and give its measured inhibition.
Out: 5.6

In: Consider the compound `CC(C)(C)c1ccc(S(=O)(=O)/C=C/C#N)cc1` and give its measured inhibition.
Out: -2.91

In: Consider the compound CCCCCC(O)CCCC(=O)O (stereo not given) and give its measured inhibition.
Out: 11.3

In: Consider the compound `CSC(N)=NCCC[C@H](N)C(=O)O` and give its measured inhibition.
Out: -0.49
